tested on: Wolbachia pipientis; assay: Anti-Wolbachia Cell-Based Screen; format: functional; set-up: scale not given: in the data most compounds retested in dose-response had high values; settings: 5 µM
The whole screen tested about 48,000 compounds, of which about 13,000 (27%) showed an effect of 50% or more. This is one part of the list.
ENDPOINT: Percent Effect (%)
Answer with a number only, understood to be in %.

Inquiry: State measured Percent Effect of the compound Cc1csc(CNC(=O)NCC(O)c2ccc(F)cc2F)n1 (stereo not given) with Wolbachia pipientis.
Reply text: -0.3867

Inquiry: Lab note: record Percent Effect of "Fc1ccc(Cc2cccc(C3CCN(C4CCOCC4)CC3)n2)cc1" tested on Wolbachia pipientis.
Reply text: 122.8

Inquiry: Retrieve Percent Effect on Wolbachia pipientis; query CN(C)CCN1CC(C(=O)NCc2cccc(-n3cccn3)c2)CC1=O (stereo not given)
Reply text: 7.096

Inquiry: Quote Percent Effect with test system Wolbachia pipientis for CC(C)N1CC(C(=O)NCc2ccnc(-n3cccn3)c2)CC1=O (stereo not given)
Reply text: -4.025

Inquiry: Recall the reported Percent Effect of CCN1CC(C(=O)NCc2cccnc2-n2cccn2)CC1=O (stereo not given) when tested on Wolbachia pipientis.
Reply text: 124.7

Inquiry: Recall the reported Percent Effect of CN(C)CCN1CC(C(=O)NCc2cn3cccnc3n2)CC1=O (stereo not given) on Wolbachia pipientis and write it down.
Reply text: -11.69

Inquiry: Under Wolbachia pipientis: report Percent Effect of "COc1ccc(Cl)cc1CC(=O)NS(=O)(=O)c1ccc(C(N)=O)cc1" .
Reply text: 102.7

Inquiry: Give Percent Effect for "O=C(CCc1ccccc1)N1CCn2cc(CN3CCCC3)nc2C1" tested on Wolbachia pipientis.
Reply text: 5.739

Inquiry: Please tell me the measured Percent Effect for O=C(NCc1ccnc(-n2cccn2)c1)C1CC(=O)N(CC2CC2)C1 (stereo not given) ; system: Wolbachia pipientis.
Reply text: 153.4

Inquiry: Please tell me the measured Percent Effect for CCCC(O)CN1CC(C)(C)CN(C(=O)CCc2ccccc2)CC1=O (stereo not given) ; system: Wolbachia pipientis.
Reply text: 81.6

Inquiry: Under Wolbachia pipientis: report Percent Effect of "CCc1nc(CCNC(=O)Nc2ccc(C(=O)NC)cc2C)cs1" .
Reply text: 3.747

Inquiry: Send back Wolbachia pipientis Percent Effect of CN1CC(C(=O)NCc2cccnc2OCc2ccccc2)CC1=O (stereo not given) only.
Reply text: 10.22

Inquiry: State Percent Effect on Wolbachia pipientis. Entry: "CN(C)C(=O)N[C@@H]1CN(C2CCOCC2)[C@@H]2CCCO[C@@H]21.O=C(O)C(F)(F)F"
Reply text: -11.3

Inquiry: Please look at CC(Cc1ccccn1)N(C)C(=O)c1ncc[nH]1 (stereo not given) and tell me its recorded Percent Effect on Wolbachia pipientis.
Reply text: -16.95

Inquiry: Answer with Percent Effect of "COc1cc(NCc2ncc[nH]2)ccc1Br" measured for Wolbachia pipientis.
Reply text: 2.622

----------
tested on: Wolbachia pipientis; assay: Anti-Wolbachia Cell-Based Screen; type: functional; design: scale not given: in the data most compounds retested in dose-response had high values; details: 5 µM
Out of some 48,000 compounds screened, about 13,000 (27%) showed an effect of 50% or more. The list shows a part of the results.
So I've got a bunch of molecules here, and I need their Percent Effect values.
Give your result in % as a bare value.

Inquiry: Report Percent Effect, nothing else, for this molecule: "COCc1nc(CNC2CSCCSC2)no1"
Reply text: 8.788

Inquiry: Look up and report measured Percent Effect for this entry: "O=C(c1ccncc1)N1CCC(O)(Cn2ccc3ccncc32)CC1"
Reply text: -4.152

Inquiry: Look up Percent Effect of "Cc1cc(N(C)CCCn2cccn2)nc(-c2cccnc2)n1" and report it.
Reply text: 95.65

----------
test system: Wolbachia pipientis; assay: Anti-Wolbachia Cell-Based Screen; format: functional; set-up: scale not given: in the data most compounds retested in dose-response had high values; details: 5 µM
Out of some 48,000 compounds screened, about 13,000 (27%) showed an effect of 50% or more. The list shows a part of the results.
ENDPOINT: Percent Effect (%)
Write the value in % as a bare number.

Inquiry: Tell us which Percent Effect value is on record for "CCc1cn[nH]c1C1CCN(C(=O)c2cc(C(C)=O)c(C)[nH]c2=O)CC1"
Reply text: 3.575

Inquiry: Using known records, supply Percent Effect for "O=C(c1cncc(N2CC[C@@]3(O)CCNC[C@H]3C2)n1)N1CCCC1"
Reply text: -7.566

Inquiry: Please report Percent Effect for the following compound: "Cc1ccc(C)c(S(=O)(=O)NCCNc2ccc(-n3cccc3)nn2)c1"
Reply text: 14.81

Inquiry: Hello, please tell me recorded Percent Effect for this one: "CC(=O)N1C[C@@H](F)[C@@H](OCc2nc3cc(C)c(C)cc3[nH]2)C1"
Reply text: -18.48

Inquiry: Provide measured Percent Effect value, entry: O=C1CC(c2cccs2)Cc2[nH]c(=O)c(C(=O)NC3CCCC3)cc21 (configuration not stated)
Reply text: 7.726

Inquiry: Give recorded Percent Effect. COCC(C)(CCO)NC(=O)Nc1cccc(F)c1C (configuration not stated)
Reply text: -3.176

Inquiry: Please report Percent Effect for the following compound: "CC(=O)N1CCN(C(=O)NCCCc2cn[nH]c2C)CC1"
Reply text: -4.106

Inquiry: Query Percent Effect for COCCNc1nc2c(c(NCC3CCOC3)n1)CCNCC2 (configuration not stated)
Reply text: 0.8355

Inquiry: Fill in reported Percent Effect for this entry: "COc1cc(C)nc(N2CCN(C(=O)c3ccn(C)c(=O)c3)CC2)n1"
Reply text: 111.9

Inquiry: Give Percent Effect for the following compound: "COCCNc1nc(C)nc2c1CCN(C[C@H]1CC[C@@H](N)CC1)CC2"
Reply text: 85.9

Inquiry: Report Percent Effect for "COc1cc(C)nc(N2CCN(C(=O)c3ccccc3C)CC2)n1"
Reply text: 2.606

Inquiry: Identify the reported Percent Effect for the following entry. "Nc1nc2c(c(NCc3nccs3)n1)CCN(CC1CCCC1)CC2"
Reply text: 99.65

Inquiry: Output measured Percent Effect for this item: "CCOc1ccnc(N2CCN(C(=O)c3cc(Cl)c[nH]3)CC2)n1"
Reply text: -0.9133

Inquiry: Please report Percent Effect for the following compound: "COc1ccnc(N2CCN(C(=O)c3ccn(C)c(=O)c3)CC2)n1"
Reply text: 101.7

Inquiry: Given the compound Cc1cnn(CC2CCCN2Cc2cc(=O)n3ccccc3n2)c1 (configuration not stated) , write its reported Percent Effect.
Reply text: 2.976

Inquiry: State its Percent Effect for this compound: N#CC1(NC(=O)COc2cc(Cl)cc(Cl)c2)CCSC1 (configuration not stated)
Reply text: -14.75

Inquiry: Respond only with Percent Effect recorded for "c1csc(CN2CCc3nc(N4CCOCC4)nc(NC4CC4)c3C2)n1"
Reply text: -41.6

----------
Exercise: state measured Percent Effect for each of the compounds provided.
tested on: Wolbachia pipientis; assay: Anti-Wolbachia Cell-Based Screen; type: functional; design: scale not given: in the data most compounds retested in dose-response had high values; conditions: 5 µM
About 13,000 (27%) of roughly 48,000 compounds showed an effect of 50% or more. Some of the results follow.
Write your answer as a measured quantity: the number, then the unit.

Inquiry: For the compound O=C(CN1CCOC(c2ccc(Cl)s2)C1)NCc1ccco1 (configuration not stated) , report Percent Effect.
Reply text: 16.69%

Inquiry: Using the record for CC1(c2ncc(CN3CCN(c4ncccn4)CC3)cn2)CCCCO1 (configuration not stated) , state its measured Percent Effect.
Reply text: 136.6%

Inquiry: Consider the compound "CC(C)c1ccc(O)c(C(=O)NC2CCN(c3ncccn3)CC2)c1" . State its measured Percent Effect.
Reply text: 6.653%

Inquiry: Please report the measured Percent Effect for "CN(CCc1ccccc1)Cc1nc(-c2cnccn2)no1"
Reply text: -27.95%

Inquiry: Fill in reported Percent Effect for this entry: "O=C(CCc1ncc(-c2ccc(F)cc2)o1)NCCN1CCOCC1"
Reply text: 3.155%

Inquiry: // fetch Percent Effect given entry [O-][S+](CCN1CCc2[nH]nc(C(F)(F)F)c2C1)c1ccccc1 (configuration not stated)
Reply text: -3.726%

Inquiry: Tell me measured Percent Effect for CCC1CN(CC(=O)Nc2cc(C)nn2C)CCO1 (configuration not stated) please.
Reply text: 11.37%

Inquiry: Hello, please tell me recorded Percent Effect for this one: "Cc1nc(COC[C@@]23CCC[C@@H]2CN(CC2CCOCC2)C3)cs1.O=C(O)C(F)(F)F"
Reply text: 1.66%

Inquiry: Tell me measured Percent Effect for CN(C)C(=O)c1ccc2c(c1)N(C)C(CC(=O)NCc1ncc[nH]1)CO2 (configuration not stated) please.
Reply text: -21.18%

Inquiry: State, in one line, measured Percent Effect of "CCC(=O)Nc1ccc(F)cc1OC"
Reply text: -5.571%

Inquiry: Specify reported Percent Effect for the compound shown: "CCC1=N[C@@]2(CC[C@@H]3CN(CC4CC4)C[C@@H]32)C(=O)N1"
Reply text: 9.591%

Inquiry: Annotate the compound "Cc1ccc(CNC(=O)CNCC2CCN(CCO)CC2)s1" with its measured Percent Effect.
Reply text: 0.4784%

Inquiry: Quick one: give measured Percent Effect for "COc1cccc2ccc(CN3CCN(c4ncccc4C)CC3)nc12"
Reply text: 2.179%

Inquiry: Tell me measured Percent Effect for "Cc1cc(NC(=O)NCCc2ccc3c(c2)OCCO3)n(C)n1" please.
Reply text: -3.946%

Inquiry: Using known records, supply Percent Effect for "c1ccc2sc(N3CCN(c4ncnc5c4CCC5)CC3)nc2c1"
Reply text: -7.695%

Inquiry: Fill in Percent Effect for record "CCS(=O)(=O)NC[C@]12COC[C@H]1CN(Cc1sccc1C)C2.O=C(O)C(F)(F)F"
Reply text: -13.08%

Inquiry: # return recorded Percent Effect for input CN(CCc1ccccc1)Cc1cnc(C2(C)CCCCO2)nc1 (configuration not stated)
Reply text: 153.2%

Inquiry: Given the compound "Cc1ccsc1CN1C[C@@H]2COC[C@]2(COCC(=O)N(C)C)C1.O=C(O)C(F)(F)F" , write its reported Percent Effect.
Reply text: 107.4%

Inquiry: Please list Percent Effect recorded for the compound "Cc1ccc(S(=O)(=O)N2CCN(CCCO)CC2)s1"
Reply text: 107%

Inquiry: // fetch Percent Effect given entry "Cc1cc(F)ccc1NC(=O)Cn1cc(C(=O)O)ccc1=O"
Reply text: -9.145%

Inquiry: Answer with reported Percent Effect of "O=C(CN1C(=O)CCC1=O)N1CCOC2(CCOCC2)C1"
Reply text: 13.71%

Inquiry: Give me measured Percent Effect, please, for this compound: "CCOCCN1C[C@H](c2cccc(OC)c2)[C@@H](N)C1"
Reply text: -6.771%

Inquiry: For "Cc1ccc(S(=O)(=O)N2CCN(CCC#N)CC2)s1" , write its Percent Effect.
Reply text: 7.923%

Inquiry: Provide measured Percent Effect value, entry: "Cc1ccsc1CN1C[C@@H]2COC[C@]2(CNC(=O)c2ccco2)C1.O=C(O)C(F)(F)F"
Reply text: -18.71%

Inquiry: Report Percent Effect, nothing else, for this compound: "Cc1cc(NC(=O)Cc2ccc3c(c2)OCO3)n(C)n1"
Reply text: 120.5%

Inquiry: Input "O=C(CCn1cncn1)N1C[C@H]2CC[C@@H]1CN(Cc1ccncc1)C2" , output reported Percent Effect.
Reply text: 5.769%

Inquiry: Give the reported value of Percent Effect for this record: "Cc1nn(-c2ccccc2)c(C)c1-c1ccnc(N2CCCNCC2)n1"
Reply text: 14.93%

Inquiry: Answer with reported Percent Effect of "Cc1nc(CN2C[C@@H]3COC[C@]3(COCC(=O)N(C)C)C2)cs1.O=C(O)C(F)(F)F"
Reply text: 99.96%

Inquiry: Assign Percent Effect to the following record: COCCOCC(=O)NC(C#N)c1c(F)cccc1Cl (configuration not stated)
Reply text: -1.788%

Inquiry: Write down Percent Effect measured for item "COCc1cc(CN(C)C(=O)CCC(=O)Nc2cc(C)ccc2F)n[nH]1"
Reply text: -13.49%

Inquiry: Item "Cc1nn(C)c(C)c1-c1ccnc(N2CCCN(CC(C)C)CC2)n1" : provide Percent Effect
Reply text: 93.07%

Inquiry: State, in one line, measured Percent Effect of "CC(=O)c1ccc(-c2cnn(CC(=O)Nc3cc(C)nn3C)c2)nc1"
Reply text: 2.251%

Inquiry: Report Percent Effect, nothing else, for this compound: "Cc1ccc(C(=O)Nc2cccc3c2C(=O)NC3)c(C)n1"
Reply text: -2.739%

Inquiry: Supply measured Percent Effect of "CN(CCc1ccccc1)Cc1cc(C(=O)N2CCCC2(C)C)no1" in your reply.
Reply text: -2.856%

Inquiry: Provide measured Percent Effect value, entry: "O=C(Cn1ccc(=O)[nH]c1=O)Nc1ccccc1F"
Reply text: -14.53%

Inquiry: Complete the entry with Percent Effect for "Cc1ccc(C(=O)N2CCSCC2)cc1N1CCNC1=O"
Reply text: -1.525%

Inquiry: Quick one: give measured Percent Effect for "Cc1nn(C)cc1-c1ccnc(N2CCSCC2)n1"
Reply text: -11.35%

Inquiry: For the compound "Cn1ncc(NC(=O)Cn2ccc(-c3cccc(F)c3)n2)n1" , give its reported Percent Effect.
Reply text: -3.857%

Inquiry: Complete the entry with Percent Effect for "Cc1ccc(S(=O)(=O)N2CCC(Cn3cc(C(C)(C)N)nn3)CC2)s1"
Reply text: -17.3%

Inquiry: Given "CC1(C)OCC2(CO1)CN(S(=O)(=O)c1ccc(Cl)s1)C2" , respond with its Percent Effect.
Reply text: -3.142%

Inquiry: State, in one line, measured Percent Effect of "COCCOCC(=O)Nc1cc(C)ccc1F"
Reply text: 111.1%

Inquiry: Give the measured Percent Effect for CC(C)=CCC1(CO)CCCN(Cc2cnc(N3CCOCC3)nc2)C1 (configuration not stated)
Reply text: -21.22%

Source: ChEMBL document CHEMBL3988442
